tested on: normal human dermal fibroblasts (NHDF) cells; assay: Fibroblast cytotoxicity (CellTiter-Glo); format: cell-based; conditions: 10 µM
# Cytotoxicity: Relative Cell Viability (% of Negative Control) values compiled below

Some solved cases for reference:
>>> df
                                   compound                        value
0  O=C(CSc1ccc(F)cc1)N1CCC(c2ccsc2)CC1 [compound 71786989]  102.2 % of Negative Control
1  O=C(CSCc1ccccc1)N1CCC(c2cccs2)CC1 [compound 71786876]   97.1 % of Negative Control
2  Cc1ccc(C)c(N2C(=O)C=CC2=O)c1 [compound 709153]    3.3 % of Negative Control
3  O=C(NC1CCCC1)c1csc(Nc2ccccc2)n1 [compound 30860168]   93.7 % of Negative Control
4       O=c1[nH]sc2ccccc12 [compound 17520]    3.3 % of Negative Control

Hello, please tell me recorded Cytotoxicity: Relative Cell Viability (% of Negative Control) for this one: CCn1c(CSc2ccccc2)nc2ccccc21 [compound 2992099]
99.2 % of Negative Control

Hello, please tell me recorded Cytotoxicity: Relative Cell Viability (% of Negative Control) for this one: O=C(Nc1cccc(C(F)(F)F)c1)C1=Cc2ccccc2OC1 [compound 1475928]
58.1 % of Negative Control

Hello, please tell me recorded Cytotoxicity: Relative Cell Viability (% of Negative Control) for this one: Cc1cccc(CC(=O)Nc2cc(C)ns2)c1 [compound 49722107]
98.5 % of Negative Control

Hello, please tell me recorded Cytotoxicity: Relative Cell Viability (% of Negative Control) for this one: O=C(Nc1ccc2[nH]c3c(c2c1)CCCC3)c1ccco1 [compound 852322]
77.3 % of Negative Control

---

System: normal human dermal fibroblasts (NHDF) cells
Experiment: Fibroblast cytotoxicity (CellTiter-Glo)
Format: cell-based
Conditions: 10 µM
Procedure: PrimaPure normal human dermal fibroblasts (NHDF) cells (Genlatis PH10605A) were cultured and passaged in fibroblast growth medium (Genlatis PM116500) according to the manufacturer’s protocol. NHDF cells (1 × 10^3 per well) were plated in a 384-well plate in cell culture medium. […] Following treatment, CellTiter-Glo (Promega) reagent was used to assay ATP-dependent luminescence and thus provide a measure of cell viability. […]
Experimental Endpoint: Cytotoxicity: Relative Cell Viability (% of Negative Control)

In [3]: df
Out[3]:
                             smiles_text                                 tested_on                        value
0        CCCCc1nnc(NC(=O)c2cc(OC)ncn2)s1  normal human dermal fibroblasts (NHDF) cells   88.7 % of Negative Control
1  Nc1cc(Cl)c([N+](=O)[O-])cc1OCc1ccccc1  normal human dermal fibroblasts (NHDF) cells  102.1 % of Negative Control
2                  Cc1cc(C)c2sc(NN)nc2c1  normal human dermal fibroblasts (NHDF) cells   38.9 % of Negative Control
3       O=C(NCCc1ccccc1)c1n[nH]c2ccccc12  normal human dermal fibroblasts (NHDF) cells   87.7 % of Negative Control

Hello, please tell me recorded Cytotoxicity: Relative Cell Viability (% of Negative Control) for this one: O=C(/C=C/c1ccco1)N1CCCc2ccccc21
109.0 % of Negative Control

Hello, please tell me recorded Cytotoxicity: Relative Cell Viability (% of Negative Control) for this one: c1ccc(-c2nc([P+](c3ccccc3)(c3ccccc3)c3ccccc3)c(N3CCCCCC3)o2)cc1
28.8 % of Negative Control
